- System: M-07e cells
- MEASUREMENT_NOTES: M-07e cellular assay (SCF-mediated cell proliferation)
- Assay type: cell-based
- STATED_CONDITIONS: Homo sapiens, 72 hours, CellTiter Glo
# Lookup of reported EC50 keyed by entry
MEASURED_QUANTITY: EC50

COMPOUND | MEASURED_QUANTITY | OBSERVED
Cc1ccc(-c2noc([C@H]3C[C@@H]3F)n2)cc1NC(=O)c1cnn2ccc(N3CC(F)(F)C3)cc12 [Example 222] | EC50 | 100 to 1000 nM
Cc1ccc(-c2noc([C@H]3C[C@@H]3F)n2)cc1NC(=O)c1cnn(-c2cccc(N)c2)c1 [Example 74] | EC50 | > 1000 nM
Cc1ccc(-c2ncc(OC(F)F)cn2)cc1NC(=O)c1cnn2ccc(-c3c(C)nc(N)nc3C)cc12 [Example 366] | EC50 | 100 to 1000 nM
Cc1ncc(-c2noc([C@H]3C[C@@H](OC(F)F)C3)n2)cc1NC(=O)c1cnn2ccc(N3CC4(COC4)C3)cc12 [Example 269] | EC50 | < 100 nM
Cc1ccc(-c2noc([C@H]3C[C@@H]3F)n2)cc1NC(=O)c1cnc(-c2ccc3[nH]c(=O)[nH]c3c2)o1 [Example 302] | EC50 | > 1000 nM
Cc1ncc(-c2nnn(CC3CC3)n2)cc1NC(=O)c1cnn2ccc(N3CC4(C3)CC(O)(C(F)F)C4)cc12 [Example 312-7] | EC50 | < 100 nM
Cc1ccc(-c2noc([C@H]3C[C@@H]3F)n2)cc1NC(=O)c1cnc(-c2ccc3[nH]nc(C)c3c2)o1 [Example 308-21] | EC50 | < 100 nM
Cc1ccc(-c2noc([C@H]3C[C@@H]3F)n2)cc1NC(=O)c1cnc(-c2ccc3[nH]c(C#N)cc3c2)o1 [Example 308-1] | EC50 | 100 to 1000 nM
Cc1ccc(-c2noc([C@H]3C[C@@H]3F)n2)cc1NC(=O)c1cnc(-c2ccncc2)o1 [Example 286] | EC50 | 100 to 1000 nM
Cc1ncc(-c2ccc(C3CC3)cn2)cc1NC(=O)c1cnn2ccc(N3CC4(C3)CC(O)(C(F)F)C4)cc12 [Example 356] | EC50 | < 100 nM
Cc1ccc(-c2noc([C@H]3C[C@@H]3F)n2)cc1NC(=O)c1cnn2ccc(N3CC4(CN(C(=O)C(F)(F)F)C4)C3)cc12 [Example 241-15] | EC50 | < 100 nM
Cc1ccc(-c2noc([C@H]3C[C@@H]3F)n2)cc1NC(=O)c1cnn2ccc(N3CC4(C3)CC4(F)F)cc12 [Example 217] | EC50 | < 100 nM
Cc1ncc(-c2ncc(OC(F)F)cn2)cc1NC(=O)c1cnn2ccc(N3CC4(C3)CC(O)(C(F)F)C4)cc12 [Example 316] | EC50 | 100 to 1000 nM
Cc1ccc(-c2noc([C@H]3C[C@@H]3F)n2)cc1NC(=O)c1cnc(-c2ccccc2N2CC3(COC3)C2)o1 [Example 289] | EC50 | > 1000 nM

----------
As shown below, each of these compounds has a reported EC50 value.
- System: M-07e cells
- MEASUREMENT_NOTES: M-07e cellular assay (SCF-mediated cell proliferation)
- Type: cell-based
- STATED_CONDITIONS: Homo sapiens, 72 hours, CellTiter Glo

COMPOUND | EC50
Cc1ccc(-c2noc([C@H]3C[C@@H]3F)n2)cc1NC(=O)c1cnn2ccc(N3CC(C(C)(C)O)C3)cc12 [Example 179] | < 100 nM
Cc1ccc(-c2noc([C@H]3C[C@@H]3F)n2)cc1NC(=O)c1cnn2ccc(-c3cnn(C(C)(C)CO)c3)cc12 [Example 140] | < 100 nM
Cc1ccc(-c2noc([C@H]3C[C@@H]3F)n2)cc1NC(=O)c1cnn2cc(-c3cnnn3CC(F)(F)F)ccc12 [Example 121] | > 1000 nM
Cc1ccc(-c2noc(C34CC(F)(C3)C4)n2)cc1NC(=O)c1cnn2ccc(N3CC4(COC4)C3)cc12 [Example 249] | < 100 nM
Cc1ccc(-c2ccc(C(C)C)cn2)cc1NC(=O)c1cnn2ccc(N3CC4(COC4)C3)cc12 [Example 349] | < 100 nM
Cc1sc(-c2noc([C@H]3C[C@@H](OC(F)(F)F)C3)n2)cc1NC(=O)c1cnn2ccc(N3CC4(COC4)C3)cc12 [Example 281-113] | 100 to 1000 nM
Cc1ccc(-c2noc([C@H]3C[C@@H]3F)n2)cc1NC(=O)c1cnn2cc(C#N)ccc12 [Example 128] | 100 to 1000 nM

----------
- Test system: M-07e cells
- MEASUREMENT_NOTES: M-07e cellular assay (SCF-mediated cell proliferation)
- Type: cell-based
- STATED_CONDITIONS: Homo sapiens, 72 hours, CellTiter Glo
pEC50: −log10 of the molar value.
Each entry below carries its reported pEC50.
MEASURED_QUANTITY: pEC50

LINE_NOTATION | OBSERVED
Cc1ccc(-c2noc([C@H]3C[C@@H]3F)n2)cc1NC(=O)c1cnc(-c2cccc3[nH]ccc23)o1 | 6.00 to 7.00
Cc1ccc(-c2noc([C@H]3C[C@@H]3F)n2)cc1NC(=O)c1cnc(-c2ccnc(N)c2)o1 | 6.00 to 7.00
Cc1ccc(-c2noc([C@H]3C[C@@H]3F)n2)cc1NC(=O)c1cnc(-c2ccc3c(c2)NC(=O)C3)o1 | < 6.00
Cc1ccc(-c2noc([C@H]3C[C@H](OC(F)(F)F)C3)n2)cc1NC(=O)c1cnn2ccc(N3CC4(COC4)C3)cc12 | > 7.00
Cc1ncc(-c2nnn(CC(F)(F)F)n2)cc1NC(=O)c1cnn2ccc(N3CC4(C3)CC(O)(C(F)F)C4)cc12 | > 7.00
Cc1ccc(-c2noc([C@H]3C[C@@H]3F)n2)cc1NC(=O)c1cnn2cc(F)ccc12 | 6.00 to 7.00
Cc1ccc(-c2noc([C@H]3C[C@@H]3F)n2)cc1NC(=O)c1cnn2ccc(N3CC(C(=O)N4CC(F)(F)C4)C3)cc12 | > 7.00
Cc1ccc(-c2noc([C@H]3C[C@@H]3F)n2)cc1NC(=O)c1cnc(-c2cccc3cn[nH]c23)o1 | < 6.00
Cc1ccc(-c2ncc(C3CC3)cn2)cc1NC(=O)c1cnn2ccc(-c3c(C)nc(N)nc3C)cc12 | > 7.00
Cc1ccc(-c2noc([C@H]3C[C@@H]3F)n2)cc1NC(=O)c1coc2ccccc12 | < 6.00
COC(=O)N1CC2(CC(c3nc(-c4ccc(C)c(NC(=O)c5cnn6ccc(N7CC8(COC8)C7)cc56)c4)no3)C2)C1 | 6.00 to 7.00
[2H]C([2H])([2H])c1ccc(-c2noc([C@H]3C[C@@H]3F)n2)cc1NC(=O)c1cnn2ccc(N3CC4(COC4)C3)cc12 | > 7.00
Cc1ccc(-c2noc([C@H]3C[C@@H]3F)n2)cc1NC(=O)c1cnn2ccc(-c3cncnc3)cc12 | > 7.00
Cc1sc(-c2noc(C3CN(C(=O)OC(C)(C)C)C3)n2)cc1NC(=O)c1cnn2ccc(N3CC4(COC4)C3)cc12 | < 6.00

----------
Measured pEC50 values are reported for all entries that follow.
- Test system: M-07e cells
- MEASUREMENT_NOTES: M-07e cellular assay (SCF-mediated cell proliferation)
- Type: cell-based
- STATED_CONDITIONS: Homo sapiens, 72 hours, CellTiter Glo
pEC50: −log10 of the molar value.

MOLECULE | MEASUREMENT_TARGET | pEC50
Cc1ccc(-c2noc([C@H]3C[C@@H]3F)n2)cc1NC(=O)c1cnn2ccc(-c3cnc(N4CC5(COC5)C4)cc3C)cc12 | M-07e cells | > 7.00
Cc1ccc(-c2noc([C@H]3C[C@@H]3F)n2)cc1NC(=O)c1cnc(-c2ccc(F)c3[nH]ccc23)o1 | M-07e cells | 6.00 to 7.00
O=C(Nc1cc(-c2noc([C@H]3C[C@@H]3F)n2)ccc1Cl)c1cnn2ccc(N3CC4(COC4)C3)cc12 | M-07e cells | > 7.00
COC(=O)N1CCC(c2nc(-c3ccc(C)c(NC(=O)c4cnn5ccc(N6CC7(COC7)C6)cc45)c3)no2)CC1 | M-07e cells | > 7.00
Cc1cc(F)c(-c2noc([C@H]3C[C@@H]3C(F)F)n2)cc1NC(=O)c1cnn2ccc(N3CC4(COC4)C3)cc12 | M-07e cells | 6.00 to 7.00
Cc1ccc(-c2noc([C@H]3C[C@@H]3F)n2)cc1NC(=O)c1cnn2ccc(N3CCN(C(=O)OC(C)(C)C)C[C@@H]3C)cc12 | M-07e cells | > 7.00
Cc1ccc(-c2noc([C@H]3C[C@@H]3F)n2)cc1NC(=O)c1cnn2ccc(-c3cnn(CC(C)(C)O)c3)cc12 | M-07e cells | > 7.00
Cc1ccc(-c2noc([C@H]3C[C@@H]3F)n2)cc1NC(=O)c1cnc(-c2ccnc(NC(=O)OC(C)(C)C)c2)o1 | M-07e cells | < 6.00
Cc1ncc(-c2noc([C@H]3C[C@@H]3F)n2)cc1NC(=O)c1cnn2ccc(N3CC4(C3)CC(O)(C(F)F)C4)cc12 | M-07e cells | > 7.00
Cc1ccc(-c2noc([C@H]3C[C@@H]3F)n2)cc1NC(=O)c1cnn2ccc(-c3ccc(F)cc3)cc12 | M-07e cells | 6.00 to 7.00
Cc1ccc(-c2noc([C@H]3C[C@@H]3F)n2)cc1NC(=O)c1cnn2ccc(N3CC4(CN(C(=O)C5CC(F)(F)C5)C4)C3)cc12 | M-07e cells | > 7.00
Cc1ccc(-c2noc(C3CCN(C(=O)[C@H]4C[C@@H]4F)C3)n2)cc1NC(=O)c1cnn2ccc(N3CC4(COC4)C3)cc12 (some centres unmarked) | M-07e cells | 6.00 to 7.00
Cc1ccc(-c2noc([C@H]3C[C@@H]3F)n2)cc1NC(=O)c1cnn2ccc(N3CCO[C@H](C)C3)cc12 | M-07e cells | > 7.00
Cc1ccc(-c2noc([C@H]3C[C@@H]3F)n2)cc1NC(=O)c1cnc(-c2ccc3[nH]c(=O)ccc3c2)o1 | M-07e cells | > 7.00
Cc1ccc(-c2noc([C@H]3C[C@@H]3F)n2)cc1NC(=O)c1cnc(-c2ccc3c(c2)OCCN3)o1 | M-07e cells | > 7.00
COC(=O)N1CC(c2nc(-c3cnc(C)c(NC(=O)c4cnn5ccc(N6CC7(C6)CC(O)(C(F)F)C7)cc45)c3)no2)C1 | M-07e cells | > 7.00
Cc1ccc(-c2noc([C@H]3C[C@@H]3F)n2)cc1NC(=O)c1cnn2ccc(-c3nnn(C)n3)cc12 | M-07e cells | > 7.00
Cc1ccc(-c2noc([C@H]3C[C@@H]3F)n2)cc1NC(=O)c1cnc(-c2ccc3nccn3c2)o1 | M-07e cells | 6.00 to 7.00
COC(=O)N1CC(F)(c2nc(-c3cnc(C)c(NC(=O)c4cnn5ccc(N6CC7(C6)CC(O)(C(F)F)C7)cc45)c3)no2)C1 | M-07e cells | < 6.00
Cc1ccc(-c2noc([C@H]3C[C@@H]3F)n2)cc1NC(=O)c1cnc(-c2ccc3c(c2)CCC(=O)N3)o1 | M-07e cells | 6.00 to 7.00
Cc1ccc(-c2nc3n(n2)CCCC3)cc1NC(=O)c1cnn2ccc(N3CC4(C3)CC(O)(C(F)F)C4)cc12 | M-07e cells | 6.00 to 7.00
Cc1ccc(-c2noc([C@H]3C[C@@H]3F)n2)cc1NC(=O)c1cnn2ccc(N3CC4CC(C3)O4)cc12 | M-07e cells | > 7.00
Cc1ccc(-c2noc([C@H]3C[C@@H]3F)n2)cc1NC(=O)c1cnn2ccc(-c3cc(C(F)(F)F)nn3C)cc12 | M-07e cells | 6.00 to 7.00
O=C(Nc1cc(-c2noc([C@H]3C[C@@H](OC(F)F)C3)n2)ccc1Cl)c1cnn2ccc(N3CC4(COC4)C3)cc12 | M-07e cells | > 7.00
Cc1sc(-c2noc([C@H]3C[C@@H](OC(F)(F)F)C3)n2)cc1NC(=O)c1cnn2ccc(N3CC4(C3)CC(O)(C(F)F)C4)cc12 | M-07e cells | 6.00 to 7.00
O=C(Nc1cc(-c2noc([C@H]3C[C@@H](OC(F)(F)F)C3)n2)ccc1Cl)c1cnn2ccc(N3CC4(C3)CC(O)(C(F)F)C4)cc12 | M-07e cells | > 7.00

From: patent US20250059174A1
